Molecular target: c-Myc template DNA (c-myc quadruplex)
Experiment: Quadruplex binding / stop assay (Taq polymerase arrest, capillary electrophoresis)
Settings: read-out: S DATA; Table 1D, stop assay data
pIC50: −log10 of the molar value.
Property name: pIC50

[
  {
    "Compound": "CN1CCN(CCCNc2c(F)cc3c(=O)c(C(=O)NCCN4CCCC4)cn4c3c2Oc2ccccc2-4)CC1",
    "Property name": "pIC50",
    "Experimental value": "< 4.82"
  }
]

Switching to the query record.
// O=C(NCCN1CCCC1)c1cn2c3c(c(SCCc4cnccn4)c(F)cc3c1=O)Oc1cccnc1-2 : pIC50 value = < 4.82
